Values compiled from patent US9469615B2.

Reported Ki by item:
tgt: hCRTH2 (Homo sapiens)
Construct: expressed in transfected cells; host or cells: HEK (human embryonic kidney) cells expressing hCRTH2; membrane preparation
Sequence (Q9Y5Y4 whole entry): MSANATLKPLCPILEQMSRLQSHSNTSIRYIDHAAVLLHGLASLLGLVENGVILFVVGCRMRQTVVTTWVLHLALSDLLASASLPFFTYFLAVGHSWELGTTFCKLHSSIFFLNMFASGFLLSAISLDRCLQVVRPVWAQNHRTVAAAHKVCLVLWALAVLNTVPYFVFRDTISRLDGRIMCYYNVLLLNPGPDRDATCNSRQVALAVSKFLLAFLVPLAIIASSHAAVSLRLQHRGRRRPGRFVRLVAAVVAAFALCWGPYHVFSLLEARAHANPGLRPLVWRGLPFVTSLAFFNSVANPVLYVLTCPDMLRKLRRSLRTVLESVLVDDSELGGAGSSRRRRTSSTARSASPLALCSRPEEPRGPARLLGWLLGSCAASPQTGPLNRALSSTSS
assay overview: Radioligand binding assay ([3H]PGD2 competition, HEK-hCRTH2 membranes)
condition summary: [3H]PGD2 competition, Table B

                                   compound  value_reported
0  C[C@H]1CN(c2ccc(F)cc2)CCN1C(=O)c1ccc2nc(-c3ccc(F)cc3)c(CCCCC(=O)O)nc2c1    2.1 to 20 nM
1  O=C(O)CCCCc1nc2cc(C(=O)N3CCC4(CCCc5ccccc54)C3)ccc2nc1-c1ccccc1 (centres unmarked)    2.1 to 20 nM
2  O=C(O)CCCCc1nc2cc(C(=O)N3CCCC3c3ccccn3)ccc2nc1-c1ccc(Cl)cc1 (centres unmarked)  20.1 to 200 nM
3  Cc1ccc(CN2CCN(C(=O)c3ccc4nc(-c5ccc(Cl)cc5)c(CCCCC(=O)O)nc4c3)CC2)cc1    2.1 to 20 nM
4  O=C(N[C@@H]1CCCc2cc(Cl)ccc21)c1ccc2nc(-c3ccccc3)c(CCCC(F)(F)C(=O)O)nc2c1    2.1 to 20 nM

Query (compound): O=C(O)CCCCc1nc2cc(C(=O)N3CCC4(CC3)CNC(=O)c3ccccc34)ccc2nc1-c1ccccc1 ; field requested: Ki
2.1 to 20 nM

Now give it for Cc1ccc(C)c(N2CCN(C(=O)c3ccc4nc(-c5ccc(Cl)cc5)c(CCCCC(=O)O)nc4c3)CC2)c1 too.
0.1 to 2 nM

Now give it for C[C@@H]1CN(C(=O)c2ccc3nc(-c4ccc(Cl)cc4)c(CCCCC(=O)O)nc3c2)[C@@H](C)CN1c1ccccc1 too.
20.1 to 200 nM

Now give it for Cc1cccc(N2CCN(C(=O)c3ccc4nc(-c5ccc(Cl)cc5)c(CCCCC(=O)O)nc4c3)CC2)c1 too.
0.1 to 2 nM

Now give it for O=C(O)Cc1cccc(CCCc2nc3cc(C(=O)N4CC(c5cccc(F)c5)C4)ccc3nc2-c2ccc(F)cc2)c1 too.
20.1 to 200 nM

Now give it for CC[C@H](NC(=O)c1ccc2nc(-c3ccc(Cl)cc3)c(CCCCC(=O)O)nc2c1)c1ccc(F)cc1 too.
2.1 to 20 nM

Now give it for O=C(O)CCCCc1nc2cc(C(=O)N3CCN(C4CCCCC4)C(=O)C3)ccc2nc1-c1ccc(Cl)cc1 too.
2.1 to 20 nM

Now give it for O=C(O)CCCCc1nc2cc(C(=O)N[C@@H]3CCOc4ccc(F)cc43)ccc2nc1-c1ccccc1 too.
2.1 to 20 nM

Now give it for O=C(O)CCCCc1nc2cc(C(=O)NC3CC(=O)Nc4ccccc43)ccc2nc1-c1ccccc1 (centres unmarked) [compound 266] too.
2.1 to 20 nM
